- assay-target: T1, Human Siglec-7 (human, UniProt Q9Y286 19-467)
- T1 construct: Expressed on transfected CHO cells; also called huSiglec-7; CD328
- T1 sequence (Q9Y286 19-467): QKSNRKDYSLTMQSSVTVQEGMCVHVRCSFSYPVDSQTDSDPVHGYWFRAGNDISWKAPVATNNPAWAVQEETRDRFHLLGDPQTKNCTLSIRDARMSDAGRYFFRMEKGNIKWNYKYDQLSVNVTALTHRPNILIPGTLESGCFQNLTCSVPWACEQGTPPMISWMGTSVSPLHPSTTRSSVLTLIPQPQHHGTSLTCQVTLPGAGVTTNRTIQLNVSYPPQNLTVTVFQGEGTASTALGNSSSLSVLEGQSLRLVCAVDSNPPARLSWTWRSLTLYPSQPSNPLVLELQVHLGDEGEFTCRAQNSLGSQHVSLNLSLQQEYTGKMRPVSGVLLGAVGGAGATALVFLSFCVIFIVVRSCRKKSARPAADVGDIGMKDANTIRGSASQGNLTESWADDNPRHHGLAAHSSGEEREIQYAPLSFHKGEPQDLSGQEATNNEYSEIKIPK
- test-details: flow cytometry, CHO transfectants
readout: EC50 (µg/mL)
Numeric only. Scale: µg/mL

Here's what some known entries look like.
# binder, readout, obs-value
rows = [
    ("mAb3 (antibody, human IgG1, V domains shown) VH: EVQLLETGPGLVKPSQSLSLTCTVTGYSITGGFAWNWIRQFPGNTLEWMGYIGYGGSTSYNPSLNSRISITRDTSKNHFFLQFNSVTTEDSATYYCARGDYLFAYWGQGTLVTVSA VL: DILMTQSPASLSASVGETVSITCRASGNIHNYLAWYLQRQGKSPQLLVYNAKTLADGVPSRFSGTGSGTQFSLKINSLQPEDFGSYYCQHFWSTPRTFGGGTKLEIK", "EC50", 0.22),
    ("mAb5 (antibody, human IgG1, V domains shown) VH: EIQLQQSGPELEKPGASVKISCKASGYSFSDYNMNWVKQSNGKSLEWIGNIDPYYGATSYNQRFKGKATLTVDKSSSTAYMQLKSLTSEDSAVYYCARGDSLFAYWGHGTLVTVSA VL: DIVMTQSQEFMSTSLGDRVSVTCKASQNVGTNVAWYQQKPGQSPKALLYSASSRYSGVPDRFTGSGSGTDFTLTISNVQSEDLAEYFCQQYITYPYTFGGGTKLEIK", "EC50", 0.22),
]

State the recorded EC50 for this entry: mAb2 (antibody, human IgG1, V domains shown) VH: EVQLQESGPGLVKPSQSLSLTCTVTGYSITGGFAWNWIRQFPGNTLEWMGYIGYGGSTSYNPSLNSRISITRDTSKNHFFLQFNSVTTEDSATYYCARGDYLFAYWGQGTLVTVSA VL: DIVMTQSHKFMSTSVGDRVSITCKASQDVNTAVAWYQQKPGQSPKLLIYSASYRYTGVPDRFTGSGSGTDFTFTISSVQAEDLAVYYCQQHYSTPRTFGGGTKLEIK 0.17

Origin of the recorded values: patent US20200369765A1
